molecular target: T-type calcium channel (Homo sapiens, UniProt O95180); assay: T-type channel blocking, FLIPR data (Table 6); format: cell-based; details: CAv3.2, closed state, read-out: CAv3.2 IC50 Closed
Sequence (O95180 whole entry): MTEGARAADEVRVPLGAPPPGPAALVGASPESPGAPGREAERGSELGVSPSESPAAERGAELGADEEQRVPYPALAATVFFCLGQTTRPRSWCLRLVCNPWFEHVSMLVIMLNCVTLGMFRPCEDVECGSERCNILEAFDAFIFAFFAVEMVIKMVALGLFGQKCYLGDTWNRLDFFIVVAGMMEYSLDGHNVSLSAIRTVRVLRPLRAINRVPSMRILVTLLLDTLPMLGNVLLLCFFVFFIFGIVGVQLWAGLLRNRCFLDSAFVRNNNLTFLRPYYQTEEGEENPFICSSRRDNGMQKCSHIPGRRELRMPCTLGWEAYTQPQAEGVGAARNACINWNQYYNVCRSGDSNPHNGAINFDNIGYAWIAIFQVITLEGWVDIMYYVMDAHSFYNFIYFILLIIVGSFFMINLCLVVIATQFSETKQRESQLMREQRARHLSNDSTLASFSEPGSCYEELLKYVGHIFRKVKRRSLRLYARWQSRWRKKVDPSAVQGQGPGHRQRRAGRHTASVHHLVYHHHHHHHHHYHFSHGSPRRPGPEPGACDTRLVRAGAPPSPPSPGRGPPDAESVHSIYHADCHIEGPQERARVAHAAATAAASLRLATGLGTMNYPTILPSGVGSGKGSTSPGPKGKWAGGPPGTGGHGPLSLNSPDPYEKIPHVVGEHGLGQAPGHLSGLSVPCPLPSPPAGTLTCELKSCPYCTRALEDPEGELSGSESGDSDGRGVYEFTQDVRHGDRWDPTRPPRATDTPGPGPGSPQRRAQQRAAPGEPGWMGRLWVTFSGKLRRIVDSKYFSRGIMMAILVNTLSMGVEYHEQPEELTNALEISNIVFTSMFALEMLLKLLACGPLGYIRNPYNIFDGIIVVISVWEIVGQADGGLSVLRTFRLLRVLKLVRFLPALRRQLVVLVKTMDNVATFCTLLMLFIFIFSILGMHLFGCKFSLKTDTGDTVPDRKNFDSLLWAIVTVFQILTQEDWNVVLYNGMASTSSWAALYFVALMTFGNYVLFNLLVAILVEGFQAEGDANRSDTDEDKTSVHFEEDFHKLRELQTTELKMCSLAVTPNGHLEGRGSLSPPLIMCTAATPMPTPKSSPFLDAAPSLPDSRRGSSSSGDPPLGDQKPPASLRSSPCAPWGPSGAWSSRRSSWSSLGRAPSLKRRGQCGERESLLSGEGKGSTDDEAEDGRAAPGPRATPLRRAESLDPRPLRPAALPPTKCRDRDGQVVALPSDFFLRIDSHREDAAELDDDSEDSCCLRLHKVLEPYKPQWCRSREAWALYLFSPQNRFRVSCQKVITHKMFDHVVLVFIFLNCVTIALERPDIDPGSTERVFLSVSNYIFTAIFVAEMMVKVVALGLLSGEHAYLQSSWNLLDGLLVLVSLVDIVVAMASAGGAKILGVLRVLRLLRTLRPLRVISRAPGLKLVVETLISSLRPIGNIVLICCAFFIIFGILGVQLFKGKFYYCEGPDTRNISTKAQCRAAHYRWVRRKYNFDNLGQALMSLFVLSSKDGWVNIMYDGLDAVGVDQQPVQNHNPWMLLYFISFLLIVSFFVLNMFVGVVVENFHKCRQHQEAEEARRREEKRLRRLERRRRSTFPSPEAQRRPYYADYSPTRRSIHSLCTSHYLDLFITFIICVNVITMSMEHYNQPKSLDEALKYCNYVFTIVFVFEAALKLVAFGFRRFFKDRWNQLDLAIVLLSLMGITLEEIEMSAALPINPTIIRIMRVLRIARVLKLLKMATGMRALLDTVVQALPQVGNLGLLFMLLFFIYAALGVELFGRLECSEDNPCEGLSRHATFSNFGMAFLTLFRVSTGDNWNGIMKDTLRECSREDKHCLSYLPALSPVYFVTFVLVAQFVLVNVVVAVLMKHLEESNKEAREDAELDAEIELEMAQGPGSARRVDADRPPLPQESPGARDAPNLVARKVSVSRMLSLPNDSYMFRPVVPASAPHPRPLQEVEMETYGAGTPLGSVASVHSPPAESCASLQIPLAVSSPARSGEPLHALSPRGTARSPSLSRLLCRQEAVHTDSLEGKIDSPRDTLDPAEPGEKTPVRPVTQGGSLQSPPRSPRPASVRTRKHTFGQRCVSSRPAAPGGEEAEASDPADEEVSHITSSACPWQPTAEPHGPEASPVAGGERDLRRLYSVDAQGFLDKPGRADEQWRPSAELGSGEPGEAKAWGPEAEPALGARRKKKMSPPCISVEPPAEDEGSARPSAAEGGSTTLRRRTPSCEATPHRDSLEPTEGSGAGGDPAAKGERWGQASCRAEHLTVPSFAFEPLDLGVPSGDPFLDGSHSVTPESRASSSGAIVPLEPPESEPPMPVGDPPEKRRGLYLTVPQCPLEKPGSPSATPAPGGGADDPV
MEASUREMENT_NAME: IC50 (µM)

CC(C)([C@H]1C[C@@H](C(=O)Nc2ccc(C(F)(F)F)nc2)C1)S(=O)(=O)c1cccc(C(F)(F)F)c1 [Compound 759] | 3.55
O=C(NC[C@H]1C[C@H](S(=O)(=O)c2cccc(OC(F)(F)F)c2)C1)c1cnc(C(F)(F)F)nc1 [Compound 696] | 9.92
CC(C)S(=O)(=O)c1cc(C(F)(F)F)cnc1C(=O)N[C@H]1C[C@@H](CC(C)(C)S(=O)(=O)c2cccc(C(F)(F)F)c2)C1 [Compound 729] | 8.13

---

biological target: T-type calcium channel (Homo sapiens, UniProt O95180); assay: T-type channel blocking, FLIPR data (Table 6); type: cell-based; settings: CAv3.2, ratio closed/inactivated IC50
MEASUREMENT_NAME: CAv3.2 IC50 Ratio closed/inact.

O=C(NC[C@H]1C[C@H](S(=O)(=O)c2cccc(OC(F)(F)F)c2)C1)c1ccnc(C(F)(F)F)n1 | 1.1
CNC1(CC(=O)NCc2ccc(S(=O)(=O)c3cccc(C(F)(F)F)c3)cc2)CCCCC1 | 1
CC(C)([C@H]1C[C@@H](NS(=O)(=O)c2ccc(C(F)(F)F)cc2)C1)S(=O)(=O)c1cc(F)cc(C(F)(F)F)c1 | 2.2
CC(C)([C@H]1C[C@H](NC(=O)c2ccc(Cl)cc2S(C)(=O)=O)C1)S(=O)(=O)c1cccc(C(F)(F)F)c1 | 1

---

target: N-type calcium channel subunits (α1B, α2δ, and β3a) (Homo sapiens, UniProt Q00975); assay: Block of Cav2.2 channel, whole cell voltage clamp, manual and PatchXpress; assay type: cell-based; settings: Table 5; table follows Assay Example 3 (whole cell voltage clamp / PatchXpress); assay not given
MEASUREMENT_NAME: IC50 (nM)

COc1cc(F)cc(C(=O)N[C@H]2CC[C@@H](S(=O)(=O)c3cccc(C(F)(F)F)c3)CC2)c1 | 410
O=C(N[C@H]1C[C@H](S(=O)(=O)c2cccc(C(F)(F)F)c2)C1)c1ccc(F)c(Cl)c1 | 2350
O=C(N[C@H]1CC[C@@](F)(S(=O)(=O)c2cccc(C(F)(F)F)c2)CC1)C1Cc2ccccc2N1 (some centres unmarked) | 450
O=S(=O)(c1cccc(C(F)(F)F)c1)[C@H]1C[C@@H](c2c[nH]c(-c3ccc(C(F)(F)F)nc3)n2)C1 | 810
O=C(N[C@H]1CC[C@@](F)(S(=O)(=O)c2cc(F)cc(C(F)(F)F)c2)CC1)c1cn2cc(C(F)(F)F)ccc2n1 | 620
CC(C)(C)NC(=O)CNC1CCC(C)(S(=O)(=O)c2cccc(C(F)(F)F)c2)CC1 (centres unmarked) | 50
O=C(N[C@H]1CC[C@@](F)(S(=O)(=O)c2cccc(OC(F)(F)F)c2)CC1)c1cncc(C(F)(F)F)c1 | 350
CN(C(=O)c1ccc(C(F)(F)F)cc1S(C)(=O)=O)[C@H]1CC[C@@](F)(S(=O)(=O)c2cc(F)cc(C(F)(F)F)c2)CC1 | 1060
O=C(CN[C@H]1CC[C@H](CS(=O)(=O)c2cccc(C(F)(F)F)c2)CC1)NC1CCCCC1 | 790
O=C(NC1CCC(S(=O)(=O)c2cccc(C(F)(F)F)c2)CC1)c1ccc(F)c(C(F)(F)F)c1 (centres unmarked) | 150
O=C(CN[C@H]1CC[C@H](S(=O)(=O)c2cccc(C(F)(F)F)c2)CC1)Nc1ccccn1 | 740
CC1(NC(=O)c2ccc(OC(F)(F)F)cc2)CCC(S(=O)(=O)c2cccc(C(F)(F)F)c2)CC1 (centres unmarked) | 1230
COc1cc(Cl)ccc1C(=O)N[C@H]1CC[C@H](S(=O)(=O)c2cccc(C(F)(F)F)c2)CC1 | 1290
O=C(N[C@H]1CC[C@@](F)(S(=O)(=O)c2cccc(C(F)(F)F)c2)CC1)C1CCCCN1 (some centres unmarked) | 580
